tested on: RPMI-8226 leukemia; assay: NCI tumour cell line growth inhibition, 48 h; in the data active = GI50 below about 0.43 µM; inactive = the rest
Could you please pick one outcome from this set? true (1) (active), false (0) (inactive)

Answered examples (3):
compound	assigned_label
COc1ccc2c(c1)CCC1C2CC[C@]2(C)/C(=N/OC(=O)Cc3ccccc3)CCC12 (some centres undefined)	false (0)
CCC(=C/[C@H](C)C/C=C/C(C)=C/[C@@H](C)C(=O)[C@@H](C)[C@H](O)[C@@H](C)CC)/C=C/[C@H]1OC(=O)C=C[C@H]1C	true (1)
Cc1ccc(C)c(-c2csc(Nc3ccc(C)c(C)c3)n2)c1	false (0)

Per the records of this test, what outcome belongs to CCCCCCCC[N+](C)(CCCCCCCC)CCCCCCCC ?
true (1)

Per the records of this test, what outcome belongs to COc1ccc(C2=NN(C(C)=O)C(c3cn(-c4ccccc4)nc3-c3ccc(Cl)cc3)C2)cc1 (centres undefined) ?
false (0)

Per the records of this test, what outcome belongs to CCCN(CCC)c1ccc(/C=N/NC(=O)c2cccnc2)c(Cl)c1 ?
false (0)

The origin of these recorded values is PubChem BioAssay (NCI).
